Catalogue of protein stability index readings, one per entry.
B1: ZBED2 (parent)
chain: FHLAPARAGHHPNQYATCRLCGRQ

# Variants of: B1
# EXPERIMENT_NOTES: protein stability index of a GFP-peptide fusion (GPS, HEK-293T) (PSI 1-6); higher = more stable;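 also: lentivirally expressed fusions sorted by FACS into six bins by GFP to DsRed ratio, PSI derived from sequencing read proportions per bin multiplied by bin number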
# CONDITION_PARAMETERS: c terminus: a fixed tail appended
I only need the number, thanks.

Please review the following examples before continuing.
[[record]]
alteration = "Q24S"
value_kind = "protein stability index"
reported = 2.03

[[record]]
alteration = "P5H"
value_kind = "protein stability index"
reported = 1.99


Now take the following variant into account.
For the variant shown here, "H11V" , give the reported protein stability index.
1.98
